# Target entity: T1, TRBP-ΔC (UniProt Q15633-2 9-215)
# T1 sequence: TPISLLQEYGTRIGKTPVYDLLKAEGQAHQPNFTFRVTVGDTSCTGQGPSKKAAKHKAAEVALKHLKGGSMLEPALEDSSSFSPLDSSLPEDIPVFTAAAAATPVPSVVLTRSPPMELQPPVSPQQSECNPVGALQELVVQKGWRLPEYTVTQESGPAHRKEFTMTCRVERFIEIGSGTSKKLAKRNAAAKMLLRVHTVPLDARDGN
# Assay procedure: EMSA; apparent Kd; nH 4; 50 mM sodium cacodylate pH 7.0, 50 mM potassium glutamate, 5% glycerol; EMSA 0.5 pM RNA, 30 min at room temperature, gel 0.25X TBE at 10 C; CD at 10 C with 5-15 uM RNA
# Particulars: protein: recombinant; label: 5'-32P top strand (EMSA); blunt
Assay metric: pKd
Quick note: pKd means taking -log10 of the concentration in moles per liter.

Assign pKd to the following record: ds22 (dsRNA) RNA 1: GUCAGCAGUGCCUUAGCAGCAC RNA 2: GUGCUGCUAAGGCACUGCUGAC
6.22
